assay: Tmax in BALB/c mouse at 10 mg/kg, iv measured for 0.25 to 24 hrs by LC-MS/MS analysis; format: ADME, organism-based; settings: in vivo, time 0.25-24 hrs

| chemical.structure | unit.spec | Tmax |
| --- | --- | --- |
| CC[C@](C)(NC(=O)[C@@H](NC(=O)[C@H](CC(C)C)NC(=O)[C@H](Cc1c[nH]c2ccccc12)NC(=O)[C@@H](CO)NC(C)=O)[C@@H](C)O)C(N)=O | min | 17.4 |

###

assay: Inhibition of cell proliferation of human Hkb20 cells incubated for 72 hrs by MTT assay; type: toxicity, cell-based

| chemical.structure | IC50 at 72 h |
| --- | --- |
| CC[C@](C)(NC(=O)[C@@H](NC(=O)[C@H](CC(C)C)NC(=O)[C@H](Cc1c[nH]c2ccccc12)NC(=O)[C@@H](CO)NC(C)=O)[C@@H](C)O)C(N)=O | > 10 µM |
